- target-system: recombinant TDP2 (Homo sapiens, UniProt O95551)
- Sequence (O95551 whole entry, species assumed): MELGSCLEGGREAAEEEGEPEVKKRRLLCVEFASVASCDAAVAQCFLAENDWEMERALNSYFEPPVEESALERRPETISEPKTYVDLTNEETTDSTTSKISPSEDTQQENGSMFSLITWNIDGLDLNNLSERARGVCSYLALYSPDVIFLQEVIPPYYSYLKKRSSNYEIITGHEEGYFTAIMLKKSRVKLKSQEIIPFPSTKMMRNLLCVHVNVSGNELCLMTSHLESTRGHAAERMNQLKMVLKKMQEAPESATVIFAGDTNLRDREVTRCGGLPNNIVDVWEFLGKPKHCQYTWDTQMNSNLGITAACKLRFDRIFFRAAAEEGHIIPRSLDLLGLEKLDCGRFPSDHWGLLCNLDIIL
- assay-details: in vitro gel-based fluorescence TDP2 assay (counterscreen)
- Assay type: biochemical
- recorded-conditions: 40 pM recombinant TDP2, 1 nM YN18 DNA substrate, 15 min, RT; read-out: TDP2 IC50
property-name: pIC50
The scale used: pIC50 is minus the common logarithm of the concentration in molar units.

For orientation, consider the following solved cases.
smiles-representation: CCN1CCN(C(=O)N[C@@H](C(=O)N[C@@H]2C(=O)N3[C@@H]2SC(C)(C)[C@@H]3C(=O)O)c2ccccc2)C(=O)C1=O
numeric-result: 3.65
//
smiles-representation: O=C1[C@H](CC[C@H](O)c2ccc(F)cc2)[C@@H](c2ccc(O)cc2)N1c1ccc(F)cc1
numeric-result: 4.28

Field: next compound
What measured pIC50 goes with CO/N=C(\C(=O)N[C@@H]1C(=O)N2C(C(=O)O)=CCS[C@H]12)c1csc(N)n1 ?
4.42

* * *

- target-system: recombinant TDP2 (Homo sapiens)
- assay-details: in vitro gel-based fluorescence TDP2 assay (counterscreen)
- Format: biochemical
- recorded-conditions: 40 pM recombinant TDP2, 1 nM YN18 DNA substrate, 15 min, RT; read-out: TDP2 IC50
Counter-ions that a name gives are not always drawn.
property-name: pIC50
The scale used: pIC50 is minus the common logarithm of the concentration in molar units.

For orientation, consider the following solved cases.
compound: C=CC1=C(C(=O)O)N2C(=O)[C@@H](NC(=O)/C(=N\OCC(=O)O)c3csc(N)n3)[C@H]2SC1 [LH5, Cefixime]
pIC50: 4.16
//
compound: CC1(C)S[C@@H]2[C@H](NC(=O)Cc3ccccc3)C(=O)N2[C@H]1C(=O)O [LC5, Benzylpenicillin potassium]
pIC50: 4.58
//
compound: CC1(C)S[C@@H]2[C@H](NC(=O)[C@H](N)c3ccccc3)C(=O)N2[C@H]1C(=O)O [LB9, Ampicillin sodium]
pIC50: 5.60

Field: next compound
What measured pIC50 goes with CON=C(C(=O)NC1C(=O)N2C(C(=O)O)=C(CSC(=O)c3ccco3)CSC12)c1csc(N)n1 (centres unmarked) [LC2, Ceftiofur hydrochloride] ?
4.09
